- target-desc: Human Axl (residues H473-A894 with Q764R) (Homo sapiens (Human), UniProt P30530, Q764R)
- Sequence (P30530 473-894 Q764R): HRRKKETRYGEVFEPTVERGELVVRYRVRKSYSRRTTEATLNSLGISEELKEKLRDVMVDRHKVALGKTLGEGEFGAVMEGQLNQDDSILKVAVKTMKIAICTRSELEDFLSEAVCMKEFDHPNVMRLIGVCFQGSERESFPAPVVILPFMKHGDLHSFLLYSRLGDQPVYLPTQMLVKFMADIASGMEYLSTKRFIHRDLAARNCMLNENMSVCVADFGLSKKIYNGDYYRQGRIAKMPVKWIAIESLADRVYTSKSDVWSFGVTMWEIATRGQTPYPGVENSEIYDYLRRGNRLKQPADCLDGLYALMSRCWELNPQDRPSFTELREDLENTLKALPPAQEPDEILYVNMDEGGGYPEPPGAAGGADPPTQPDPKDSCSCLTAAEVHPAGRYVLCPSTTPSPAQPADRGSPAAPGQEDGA
- assay-procedure: Human AXL kinase assay (33P radiometric, KinaseProfiler)
- condition: 10 μM ATP
metric-name: IC50

Use these answered entries as a reference point.
For COc1cc2nccc(Oc3ccc(NC(=O)C4(C(=O)Nc5ccc(F)cc5)CC4)cc3F)c2cc1C(=O)O [Compound 131] , what is its reported IC50?
10 to 100 nM

Another compound to check: COc1cc2nccc(Oc3ccc(NC(=O)C4(C(=O)Nc5ccc(F)cc5)CC4)cc3)c2cc1C(=O)NCCN(C)C [Compound 10]
10 to 100 nM

Another compound to check: COc1cc2nccc(Oc3ccc(NC(=O)C4(C(=O)Nc5ccc(F)cc5)CC4)cc3)c2cc1-c1cn[nH]c1 [Compound 186]
10 to 100 nM

Another compound to check: NC(=O)c1cc2c(Oc3ccc(NC(=O)C4(C(=O)Nc5ccc(F)cc5)CC4)cc3)ccnc2cc1OCCCN1CCOCC1 [Compound 98]
≤ 10 nM

Another compound to check: COc1cc2nccc(Oc3ccc(NC(=O)C4(C(=O)Nc5ccc(F)cc5)CC4)cc3)c2cc1-c1c(C)noc1C [Compound 184]
10 to 100 nM

Another compound to check: COc1cc2nccc(Oc3ccc(NC(=O)C4(C(=O)Nc5ccc(F)cc5)CC4)cc3)c2cc1C1(O)COC1 [Compound 196]
≤ 10 nM

More entries:
For COc1cc2nccc(Oc3ccc(NC(=O)C4(C(=O)Nc5ccc(F)cc5)CC4)cc3)c2cc1-c1cccn1C(=O)OC(C)(C)C [Compound 181] , what is its reported IC50?
100 to 1000 nM

Another compound to check: COC(=O)c1ccc2c(Oc3ccc(NC(=O)C4(C(=O)Nc5ccc(F)cc5)CC4)cc3)ccnc2c1 [Compound 162]
10 to 100 nM

Another compound to check: COc1cc2nccc(Oc3ccc(NC(=O)C4(C(=O)Nc5ccc(F)cc5)CC4)cc3)c2cc1C#N [Compound 37]
10 to 100 nM
